Molecular target: T1, His/Avi-CynoIL18BP (recombinant cynomolgus IL-18BP with His and Avi tags) (cynomolgus monkey)
T1 construct: also called cynomolgus IL-18BP-Avi-His
T1 chain: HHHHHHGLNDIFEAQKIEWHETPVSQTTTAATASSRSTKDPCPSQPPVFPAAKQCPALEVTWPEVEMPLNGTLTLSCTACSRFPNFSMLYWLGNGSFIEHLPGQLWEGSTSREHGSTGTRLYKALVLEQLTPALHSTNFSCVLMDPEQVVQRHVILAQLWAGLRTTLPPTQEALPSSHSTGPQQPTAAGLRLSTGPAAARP
Experiment: SPR Biacore T200, IgG captured on Protein A/G
# strict inequality: Kd < 2 nM yields condition met, everything else yields condition not met

anti-IL-18BP antibody variant BP-04.07 (antibody, V domains shown) VH: QVQLVQSGAEVKKPGASVKVSCKASGYTFTDYDMHWVRQAPGQGLEWMGIISTYYGVVSYAQKKQGRVTMTRDKSTSTVYMELSSLRSEDTAVYYCARSGTYNYGTRESHALDYWGQGTLVTVSS VL: DIQMTQSPSSVSASVGDRVTITCRASDNVYSNLAWYQQKPGKAPKLLIYGAISLADGVPSRFSGSGSGTDFTLTISSLQPEDFATYYCQHFWGNPYTFGQGTKLEIK
condition not met
anti-IL-18BP antibody variant BP-04.05 (antibody, V domains shown) VH: QVQLVQSGAEVKKPGASVKVSCKASGYTFTDYDMHWVRQAPGQGLEWMGIISTYYGVVSYAQKKQGRVTMTRDKSTSTVYMELSSLRSEDTAVYYCARSGTYYYGTRESHAFDYWGQGTLVTVSS VL: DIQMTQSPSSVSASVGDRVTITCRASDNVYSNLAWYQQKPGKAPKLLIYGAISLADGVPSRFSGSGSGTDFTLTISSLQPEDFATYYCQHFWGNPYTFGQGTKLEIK
condition met
anti-IL-18BP antibody variant BP-04.24 (antibody, V domains shown) VH: QVQLVQSGAEVKKPGASVKVSCKASGYTFTDYDMHWVRQAPGQGLEWMGIYSTYYGDVSYAQKFQGRVTMTRDKSTSTVYMELSSLRSEDTAVYYCARSGTYYYGTRESHPLDYWGQGTLVTVSS VL: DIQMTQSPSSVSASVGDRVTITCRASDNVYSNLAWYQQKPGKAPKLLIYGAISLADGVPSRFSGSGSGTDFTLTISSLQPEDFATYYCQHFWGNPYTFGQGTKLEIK
condition not met
anti-IL-18BP antibody variant BP-04.28 (antibody, V domains shown) VH: QVQLVQSGAEVKKPGASVKVSCKASGYTFTDYDMHWVRQAPGQGLEWMGIISTYYGDVSYAQKFQGRVTMTRDKSTSTVYMELSSLRSEDTAVYYCARSGTYYYGTRESHPLDYWGQGTLVTVSS VL: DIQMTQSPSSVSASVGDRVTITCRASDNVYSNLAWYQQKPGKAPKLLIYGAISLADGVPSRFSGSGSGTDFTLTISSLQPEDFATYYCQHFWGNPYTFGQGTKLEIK
condition not met

Attention now shifts to the item below.
Criterion: Kd strictly below 2 nM. Is it met by anti-IL-18BP antibody variant BP-04.03 (antibody, V domains shown) VH: QVQLVQSGAEVKKPGASVKVSCKASGYTFTDYDMHWVRQAPGQGLEWMGIISTYYGDVSYAQKFQGRVTMTRDKSTSTVYMELSSLRSENTAVYYCARSGTYYYGTREQHALDYWGQGTLVTVSS VL: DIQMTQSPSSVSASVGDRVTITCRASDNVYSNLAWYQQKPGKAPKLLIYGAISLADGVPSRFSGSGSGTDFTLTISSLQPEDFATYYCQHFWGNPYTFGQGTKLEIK ?
condition not met
